- assay.details: Phase I study CXR1002-001: plasma pharmacokinetics (LC-MS/MS)
- Type: in vivo, human
- experimental.setup: human, plasma, po, 1200 mg, Patient 038, 1200 mg weekly oral dose, Time 844 hr; read-out: Concentration (plasma level)
outcome.measure: concentration at 844 h (µM)

O=C(O)C(F)(F)C(F)(F)C(F)(F)C(F)(F)C(F)(F)C(F)(F)C(F)(F)F: 914

###

- assay.details: Phase I study CXR1002-001: plasma pharmacokinetics (LC-MS/MS)
- Assay type: in vivo, human
- experimental.setup: human, plasma, oral, 200 mg, Patient 008 Dose 200 mg; 4 hr; read-out: Concentration
outcome.measure: concentration at 4 h (µM)

O=C(O)C(F)(F)C(F)(F)C(F)(F)C(F)(F)C(F)(F)C(F)(F)C(F)(F)F: 81

###

- assay.details: Phase I study CXR1002-001: plasma pharmacokinetics (LC-MS/MS)
- Format: in vivo, human
- experimental.setup: human, plasma, po, 1200 mg, Patient 036, 1200 mg weekly oral dose, Time 4 hr; read-out: Concentration (plasma level)
outcome.measure: concentration at 4 hr

O=C(O)C(F)(F)C(F)(F)C(F)(F)C(F)(F)C(F)(F)C(F)(F)C(F)(F)F [CXR1002]: 361 µM

###

- assay.details: Phase I study CXR1002-001: plasma pharmacokinetics (LC-MS/MS)
- Format: in vivo, human
- experimental.setup: human, plasma, oral, 50 mg, Patient 003 Dose 50 mg; 528 hr (Day 22); read-out: Concentration
outcome.measure: concentration at 528 h (µM)

O=C(O)C(F)(F)C(F)(F)C(F)(F)C(F)(F)C(F)(F)C(F)(F)C(F)(F)F [CXR1002]: 6.5

###

- assay.details: Phase I study CXR1002-001: plasma pharmacokinetics (LC-MS/MS)
- Type: in vivo, human
- experimental.setup: human, plasma, oral, 750 mg, Patient 027, 750 mg, person, plasma, 168 hr (Day 8); read-out: Concentration
outcome.measure: concentration at 168 h (µM)

O=C(O)C(F)(F)C(F)(F)C(F)(F)C(F)(F)C(F)(F)C(F)(F)C(F)(F)F [CXR1002]: 168

###

- assay.details: Phase I study CXR1002-001: plasma pharmacokinetics (LC-MS/MS)
- Assay type: in vivo, human
- experimental.setup: human, plasma, po, 1000 mg, Patient 042, 1000 mg weekly oral dose, Time 844 hr; read-out: Concentration (plasma level)
outcome.measure: concentration at 844 hr (µM)

O=C(O)C(F)(F)C(F)(F)C(F)(F)C(F)(F)C(F)(F)C(F)(F)C(F)(F)F: 1160

###

- assay.details: Phase I study CXR1002-001: plasma pharmacokinetics (LC-MS/MS)
- Format: in vivo, human
- experimental.setup: human, plasma, oral, 600 mg, Patient 018, 600 mg, person, plasma, 338 hr; read-out: Concentration
outcome.measure: concentration at 338 h (µM)

O=C(O)C(F)(F)C(F)(F)C(F)(F)C(F)(F)C(F)(F)C(F)(F)C(F)(F)F: 551

###

- assay.details: Phase I study CXR1002-001: plasma pharmacokinetics (LC-MS/MS)
- Type: in vivo, human
- experimental.setup: human, plasma, oral, 750 mg, Patient 026, 750 mg, person, plasma, 843 hr; read-out: Concentration
outcome.measure: concentration at 843 h (µM)

O=C(O)C(F)(F)C(F)(F)C(F)(F)C(F)(F)C(F)(F)C(F)(F)C(F)(F)F: 776
